Reported % inhibition Apo pol 10' values for the following compounds.
Target: P. falciparum apicoplast DNA polymerase (Pf-apPOL) (Plasmodium falciparum, UniProt Q8ILY1)
Sequence (Q8ILY1 entry or part of it): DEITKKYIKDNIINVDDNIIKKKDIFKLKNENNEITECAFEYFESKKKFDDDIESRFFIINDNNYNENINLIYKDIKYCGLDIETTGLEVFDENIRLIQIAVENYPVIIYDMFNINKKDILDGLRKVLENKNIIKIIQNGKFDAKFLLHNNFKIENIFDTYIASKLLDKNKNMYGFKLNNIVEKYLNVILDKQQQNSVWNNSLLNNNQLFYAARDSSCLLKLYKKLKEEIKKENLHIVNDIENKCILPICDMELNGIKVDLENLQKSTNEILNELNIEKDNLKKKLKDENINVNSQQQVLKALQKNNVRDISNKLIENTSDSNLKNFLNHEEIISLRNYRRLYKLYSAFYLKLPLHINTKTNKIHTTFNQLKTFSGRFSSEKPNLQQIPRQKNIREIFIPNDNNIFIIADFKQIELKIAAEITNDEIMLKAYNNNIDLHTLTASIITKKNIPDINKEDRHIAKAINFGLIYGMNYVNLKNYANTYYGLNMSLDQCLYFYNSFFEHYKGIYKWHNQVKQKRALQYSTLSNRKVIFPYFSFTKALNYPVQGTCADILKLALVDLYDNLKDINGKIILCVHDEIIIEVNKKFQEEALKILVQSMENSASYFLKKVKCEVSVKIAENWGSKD
Experiment: Fluorescence-based high-throughput DNA polymerase assay (molecular beacon), primary screen and dose-response
Type: biochemical
Settings: DRC-1; 10'; concentration 80
observable: % inhibition Apo pol 10' (%)

[
  {
    "compound": "O=C(Nc1ncc([N+](=O)[O-])s1)c1ccc2c(c1)C(=O)N(N1C(=O)c3ccccc3C1=O)C2=O",
    "observable": "% inhibition Apo pol 10'",
    "result": 81.7904
  },
  {
    "compound": "COc1ccc(-c2cc3nc4c(c(=O)n3[nH]2)CCN(C(=O)CCc2ccccc2)C4)cc1",
    "observable": "% inhibition Apo pol 10'",
    "result": 78
  },
  {
    "compound": "O=C(NC(C(Cl)Cl)S(=O)(=O)c1ccccc1)c1ccccc1 (centres unmarked)",
    "observable": "% inhibition Apo pol 10'",
    "result": 80.3513
  },
  {
    "compound": "O=C(Nc1nnc(-c2cccs2)o1)c1ccc([N+](=O)[O-])o1",
    "observable": "% inhibition Apo pol 10'",
    "result": 81.7408
  },
  {
    "compound": "COc1cccc(C(=O)N2CCc3c(nc4cc(-c5ccccc5)[nH]n4c3=O)C2)c1OC",
    "observable": "% inhibition Apo pol 10'",
    "result": 81
  }
]
